Numbers sourced from patent US12533345B2.

# System: CIC-1 inhibited rat soleus muscles
# protocol details: Myotonia (tail AUC of force response) in 9AC-treated isolated rat soleus muscle
# setup conditions: Rattus norvegicus, read-out: RUF concentration for AUC to be reduced by 50%, in presence of 0.5 μM LTG (n=6)
endpoint name: pEC50
Numbers only, as −log10 of the molar value.

What value of pEC50 on CIC-1 inhibited rat soleus muscles does NC(=O)c1cn(Cc2c(F)cccc2F)nn1 [Rufinamide] have?
5.15

---

# Test system: isolated human abdominal rectus muscle
# protocol details: Myotonia (tail AUC) in 9AC-treated bundles of isolated human abdominal rectus muscle
# Assay type: cell-based
# setup conditions: Homo sapiens; read-out: EC50 (concentration required to reduce AUC to 50% of maximal value)
For each of the compounds below, state its EC50.
Answers are plain numbers, in µM.

Please look up its EC50: Nc1nnc(-c2cccc(Cl)c2Cl)c(N)n1
5.54

Next:
Please look up its EC50: NC(=O)c1cn(Cc2c(F)cccc2F)nn1 [Rufinamide]
22.5
